Measured IC50 values are reported for all entries that follow.
- Test system: H2405 cells
- EXPERIMENTAL_DETAILS: H2405 Cell Proliferation Assay (1)
- Assay type: cell-based
- DETAILS: Homo sapiens, NCI-H2405

MOLECULE	IC50
Cc1ccc(NC(=O)c2cc(CN(C)C)cc(C(F)(F)F)c2)cc1-c1cccc(-c2cc(NC(=O)C3CC3)ncn2)c1	100 to 500 nM
COC(C)(C)c1cc(C(=O)Nc2cnc(C)c(-c3cccc(-c4cc(NC(=O)C5CC5)ncn4)c3)c2)ccn1	≤ 100 nM
CNC(=O)c1cc(-c2cc(-c3cc(NC(=O)c4ccnc(C5(C#N)CC5)c4)ccc3C)ncn2)ccn1	100 to 500 nM
Cc1ccc(NC(=O)c2cc(C(C)(C)C)no2)cc1-c1cc(-c2ccnc(NC(=O)C3CC3)c2)cnn1	100 to 500 nM
CNC(=O)c1cc(-c2cnnc(-c3cc(NC(=O)c4ccnc(C5CC5)c4)cnc3C)c2)ccn1	1000 to 10000 nM
Cc1ncc(NC(=O)C2CCOC(C)(C)C2)cc1-c1cccc(-c2cc(NC(=O)C3CC3)ncn2)c1 (stereo not drawn)	1000 to 10000 nM
